target: recombinant human AMPK complex, containing α2β1γ2 (Homo sapiens, UniProt P54646+Q9Y478); construct: hsAMPKα2-552-His, hsAMPKβ1-2-270 and hsAMPKγ-2-569 respectively; hsAMPKβ1-2-270; hsAMPKγ-2-569; His (C); experiment: AMPK in vitro activation assay (HTRF); conditions: HTRF, recombinant human α2β1γ2 AMPK, 200 μM ATP, biotinylated ACC-CREBp peptide; repeat determinations on separate lines
Sequence (P54646 2-552): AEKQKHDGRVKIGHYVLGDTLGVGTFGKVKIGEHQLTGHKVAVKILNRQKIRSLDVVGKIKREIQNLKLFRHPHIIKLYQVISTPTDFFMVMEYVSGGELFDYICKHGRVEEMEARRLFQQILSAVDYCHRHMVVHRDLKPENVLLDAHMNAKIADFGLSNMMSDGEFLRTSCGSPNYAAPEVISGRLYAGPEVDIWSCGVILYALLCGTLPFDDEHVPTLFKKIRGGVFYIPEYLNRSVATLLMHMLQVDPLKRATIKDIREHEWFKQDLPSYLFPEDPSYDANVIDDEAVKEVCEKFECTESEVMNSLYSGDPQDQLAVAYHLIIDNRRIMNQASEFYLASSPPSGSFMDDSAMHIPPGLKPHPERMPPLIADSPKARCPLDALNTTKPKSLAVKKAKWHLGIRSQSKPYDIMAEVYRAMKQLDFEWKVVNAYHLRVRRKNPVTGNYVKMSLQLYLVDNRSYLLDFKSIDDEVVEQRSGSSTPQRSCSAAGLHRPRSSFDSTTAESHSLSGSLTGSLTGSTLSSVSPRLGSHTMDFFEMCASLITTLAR
Sequence (Q9Y478 2-270): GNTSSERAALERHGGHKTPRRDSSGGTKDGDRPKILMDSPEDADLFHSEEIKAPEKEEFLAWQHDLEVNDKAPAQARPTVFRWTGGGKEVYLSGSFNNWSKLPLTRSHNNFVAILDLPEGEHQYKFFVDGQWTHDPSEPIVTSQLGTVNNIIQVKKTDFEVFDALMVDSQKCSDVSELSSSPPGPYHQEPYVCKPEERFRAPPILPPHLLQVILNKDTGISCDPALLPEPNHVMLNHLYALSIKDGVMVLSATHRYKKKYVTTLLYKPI
Sequence (Q9UGJ0 2-569 partner limits assumed): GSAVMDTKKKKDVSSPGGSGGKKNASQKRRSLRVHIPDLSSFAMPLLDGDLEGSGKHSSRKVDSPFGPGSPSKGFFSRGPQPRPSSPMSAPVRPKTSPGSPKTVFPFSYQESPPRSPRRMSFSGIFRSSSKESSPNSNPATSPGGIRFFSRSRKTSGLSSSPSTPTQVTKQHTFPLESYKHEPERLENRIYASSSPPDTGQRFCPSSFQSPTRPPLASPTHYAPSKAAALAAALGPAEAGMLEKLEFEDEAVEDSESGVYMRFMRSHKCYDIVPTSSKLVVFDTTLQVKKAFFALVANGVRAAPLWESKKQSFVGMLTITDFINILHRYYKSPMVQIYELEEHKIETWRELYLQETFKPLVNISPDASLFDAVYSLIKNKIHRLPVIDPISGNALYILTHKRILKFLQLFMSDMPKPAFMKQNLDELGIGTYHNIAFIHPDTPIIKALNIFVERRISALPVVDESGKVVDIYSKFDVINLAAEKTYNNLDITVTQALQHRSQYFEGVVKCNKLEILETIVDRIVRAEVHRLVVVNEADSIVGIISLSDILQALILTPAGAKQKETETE
measured quantity: pEC50
Answers are plain numbers, as −log10 of the molar value.

Solved entries (count: 3):
CCOc1cc(C(O)=C2C(=O)Nc3cc(Cl)c(-c4ccc(-c5cccc(OC)c5O)cc4)cc32)on1 :: 9.52
Cc1cc(C(O)=C2C(=O)Nc3cc(Cl)c(-c4ccc(C5=CCOCC5)cc4)cc32)sn1 :: 7.02
Cc1cc(C(O)=C2C(=O)Nc3cc(Cl)c(-c4ccc(N5CCCC5)cc4)cc32)on1 :: 6.96

Then this compound:
**Query** GET /values?readout=pEC50&item= Cc1cc(C(O)=C2C(=O)Nc3cc(Cl)c(-c4ccc(C5CCCO5)cc4)cc32)on1 (stereo not shown)
**Result** 6.82

Measured values drawn from patent US10077237B2 for this set.
